CC50 values for the compounds below.
Assay: Cytotoxicity against human HeLa cells after 3 to 4 days
Type: cell-based

>>> readout_value("CN[C@@H]1[C@H](O[C@@H]2O[C@H](CO)[C@@H](O)[C@H](OS(=O)(=O)O)[C@H]2O)[C@@H](O)[C@H](O[C@H]2c3cc(C)c(C(=O)N[C@H](C)C(=O)O)c(O)c3-c3c(cc4c(c3O)C(=O)c3cc(OC)cc(O)c3C4=O)[C@@H]2O)O[C@@H]1C")
"> 230 µM"

// moving on: another record for CC50
Record summary for CN[C@@H]1[C@H](O[C@@H]2OC[C@@H](O)[C@H](O)[C@H]2O)[C@@H](O)[C@H](O[C@H]2c3cc(C)c(C(=O)N[C@H](C)C(=O)O)c(O)c3-c3c(cc4c(c3O)C(=O)c3cc(OC)cc(O)c3C4=O)[C@@H]2O)O[C@@H]1C : reported CC50 = > 50 µM

----------
CC50 values for the compounds below.
Experiment: Cytotoxicity against human PBMC cells after 3 to 4 days
Type: cell-based

>>> readout_value("CN[C@@H]1[C@H](O[C@@H]2OC[C@@H](O)[C@H](O)[C@H]2O)[C@@H](O)[C@H](O[C@H]2c3cc(C)c(C(=O)N[C@H](C)C(=O)O)c(O)c3-c3c(cc4c(c3O)C(=O)c3cc(OC)cc(O)c3C4=O)[C@@H]2O)O[C@@H]1C [PRADIMICIN A]")
"> 50 µM"

Record summary for CN[C@@H]1[C@H](O[C@@H]2O[C@H](CO)[C@@H](O)[C@H](OS(=O)(=O)O)[C@H]2O)[C@@H](O)[C@H](O[C@H]2c3cc(C)c(C(=O)N[C@H](C)C(=O)O)c(O)c3-c3c(cc4c(c3O)C(=O)c3cc(OC)cc(O)c3C4=O)[C@@H]2O)O[C@@H]1C [PRADIMICIN S] : reported CC50 = > 230 µM

----------
Assay: Cytotoxicity against human CEM cells after 7 days by trypan blue staining
Format: cell-based, CCRF-CEM
CC50 at 168 h values for the molecules below.

>>> readout_value("CN[C@@H]1[C@H](O[C@@H]2OC[C@@H](O)[C@H](O)[C@H]2O)[C@@H](O)[C@H](O[C@H]2c3cc(C)c(C(=O)N[C@H](C)C(=O)O)c(O)c3-c3c(cc4c(c3O)C(=O)c3cc(OC)cc(O)c3C4=O)[C@@H]2O)O[C@@H]1C [PRADIMICIN A]")
"> 100 µM"

Record summary for CN[C@@H]1[C@H](O[C@@H]2O[C@H](CO)[C@@H](O)[C@H](OS(=O)(=O)O)[C@H]2O)[C@@H](O)[C@H](O[C@H]2c3cc(C)c(C(=O)N[C@H](C)C(=O)O)c(O)c3-c3c(cc4c(c3O)C(=O)c3cc(OC)cc(O)c3C4=O)[C@@H]2O)O[C@@H]1C [PRADIMICIN S] : reported CC50 at 168 h = > 100 µM

----------
Assay: Aqueous solubility of the compound
Format: physicochemical
Settings: aqueous medium; read-out: Activity
Observable: solubility (µM)
Dear colleague, please return just the value in µM, with no unit written.

Record summary for CN[C@@H]1[C@H](O[C@@H]2OC[C@@H](O)[C@H](O)[C@H]2O)[C@@H](O)[C@H](O[C@H]2c3cc(C)c(C(=O)N[C@H](C)C(=O)O)c(O)c3-c3c(cc4c(c3O)C(=O)c3cc(OC)cc(O)c3C4=O)[C@@H]2O)O[C@@H]1C [PRADIMICIN A] : reported solubility = 50

----------
Experiment: Cytotoxicity against human C8166 cells after 3 to 4 days
Type: cell-based
CC50 values for the compounds below.

>>> readout_value("CN[C@@H]1[C@H](O[C@@H]2OC[C@@H](O)[C@H](O)[C@H]2O)[C@@H](O)[C@H](O[C@H]2c3cc(C)c(C(=O)N[C@H](C)C(=O)O)c(O)c3-c3c(cc4c(c3O)C(=O)c3cc(OC)cc(O)c3C4=O)[C@@H]2O)O[C@@H]1C [PRADIMICIN A]")
"> 50 µM"

// moving on: another record for CC50
Record summary for CN[C@@H]1[C@H](O[C@@H]2O[C@H](CO)[C@@H](O)[C@H](OS(=O)(=O)O)[C@H]2O)[C@@H](O)[C@H](O[C@H]2c3cc(C)c(C(=O)N[C@H](C)C(=O)O)c(O)c3-c3c(cc4c(c3O)C(=O)c3cc(OC)cc(O)c3C4=O)[C@@H]2O)O[C@@H]1C [PRADIMICIN S] : reported CC50 = > 230 µM

----------
Test: Cytotoxicity against human thymidine kinase-negative OST cells after 3 to 4 days
Assay type: cell-based
Observable: CC50

>>> readout_value("CN[C@@H]1[C@H](O[C@@H]2OC[C@@H](O)[C@H](O)[C@H]2O)[C@@H](O)[C@H](O[C@H]2c3cc(C)c(C(=O)N[C@H](C)C(=O)O)c(O)c3-c3c(cc4c(c3O)C(=O)c3cc(OC)cc(O)c3C4=O)[C@@H]2O)O[C@@H]1C [PRADIMICIN A]")
"> 50 µM"

// moving on: another record for CC50
Record summary for CN[C@@H]1[C@H](O[C@@H]2O[C@H](CO)[C@@H](O)[C@H](OS(=O)(=O)O)[C@H]2O)[C@@H](O)[C@H](O[C@H]2c3cc(C)c(C(=O)N[C@H](C)C(=O)O)c(O)c3-c3c(cc4c(c3O)C(=O)c3cc(OC)cc(O)c3C4=O)[C@@H]2O)O[C@@H]1C [PRADIMICIN S] : reported CC50 = > 230 µM

----------
Test: Cytotoxicity against human Molt4 cells after 3 to 4 days
Assay type: cell-based
Conditions: MOLT-4 cells
Observable: CC50

>>> readout_value("CN[C@@H]1[C@H](O[C@@H]2O[C@H](CO)[C@@H](O)[C@H](OS(=O)(=O)O)[C@H]2O)[C@@H](O)[C@H](O[C@H]2c3cc(C)c(C(=O)N[C@H](C)C(=O)O)c(O)c3-c3c(cc4c(c3O)C(=O)c3cc(OC)cc(O)c3C4=O)[C@@H]2O)O[C@@H]1C")
"> 230 µM"

// moving on: another record for CC50
Record summary for CN[C@@H]1[C@H](O[C@@H]2OC[C@@H](O)[C@H](O)[C@H]2O)[C@@H](O)[C@H](O[C@H]2c3cc(C)c(C(=O)N[C@H](C)C(=O)O)c(O)c3-c3c(cc4c(c3O)C(=O)c3cc(OC)cc(O)c3C4=O)[C@@H]2O)O[C@@H]1C : reported CC50 = > 50 µM

----------
Assay: Cytotoxicity against human MT4 cells after 7 days by trypan blue staining
Format: cell-based
Observable: CC50 at 168 h

Record summary for CN[C@@H]1[C@H](O[C@@H]2OC[C@@H](O)[C@H](O)[C@H]2O)[C@@H](O)[C@H](O[C@H]2c3cc(C)c(C(=O)N[C@H](C)C(=O)O)c(O)c3-c3c(cc4c(c3O)C(=O)c3cc(OC)cc(O)c3C4=O)[C@@H]2O)O[C@@H]1C : reported CC50 at 168 h = > 50 µM

----------
CC50 values for the molecules below.
Test: Cytotoxicity against human U87 cells after 3 to 4 days
Format: cell-based, U-87MG ATCC

>>> readout_value("CN[C@@H]1[C@H](O[C@@H]2OC[C@@H](O)[C@H](O)[C@H]2O)[C@@H](O)[C@H](O[C@H]2c3cc(C)c(C(=O)N[C@H](C)C(=O)O)c(O)c3-c3c(cc4c(c3O)C(=O)c3cc(OC)cc(O)c3C4=O)[C@@H]2O)O[C@@H]1C")
"> 50 µM"

// moving on: another record for CC50
Record summary for CN[C@@H]1[C@H](O[C@@H]2O[C@H](CO)[C@@H](O)[C@H](OS(=O)(=O)O)[C@H]2O)[C@@H](O)[C@H](O[C@H]2c3cc(C)c(C(=O)N[C@H](C)C(=O)O)c(O)c3-c3c(cc4c(c3O)C(=O)c3cc(OC)cc(O)c3C4=O)[C@@H]2O)O[C@@H]1C : reported CC50 = > 230 µM
